assay: NCI Yeast Anticancer Drug Screen. Data for the rad50 strain (AID 155);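 also: 0% = growth of vehicle-only cultures of the same strain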; details: S. cerevisiae rad50 strain growth inhibition; at 50.0 µM
The panel holds about 79,000 compounds, 15% with a hit somewhere; the sample as a whole holds those more often. The source made the active and inactive calls. Rule as the data show it: active = growth inhibition above about 70%; inactive = the rest.
Write down the outcome that applies. Available outcomes: active, inactive

Worked examples follow.
INPUT: Lab log entry: `N=C(N)c1ccc(N=Nc2cc(/C=C/c3ccccc3)ccc2O)cc1` — outcome as called in the assay?
OUTPUT: active

INPUT: Lab log entry: `C[N+](C)([O-])CCOc1cc2c(c3ccccc13)-c1ccccc1C2=O` — outcome as called in the assay?
OUTPUT: active

INPUT: Lab log entry: Cc1ccc2c(c1)C1(C)C=C(CN3CCN(C)CC3)C(=O)CC1O2 (stereo not given) — outcome as called in the assay?
OUTPUT: active

INPUT: Lab log entry: COCCN1C(=O)C2c3[nH]c4ccccc4c3C3CCC(C(C)(C)C)CC3C2C1=O (stereo not given) — outcome as called in the assay?
OUTPUT: active

INPUT: Lab log entry: `CN(C)CCSc1cc(-c2ccccc2)c2ccccc2n1` — outcome as called in the assay?
OUTPUT: inactive

Further cases:
INPUT: Lab log entry: OC(c1cc2ccccc2o1)c1cc2ccccc2s1 (stereo not given) — outcome as called in the assay?
OUTPUT: inactive

INPUT: Lab log entry: `CN(C)CCC(=O)C(=Cc1cc(Cl)cc(Cl)c1)C(=O)CCN(C)C` — outcome as called in the assay?
OUTPUT: active

INPUT: Lab log entry: CC1N=C(Cc2ccccc2)SC1C (stereo not given) — outcome as called in the assay?
OUTPUT: active

* * *

assay: NCI Yeast Anticancer Drug Screen. Data for the cln2 rad14 strain (AID 165);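 also: 0% = growth equal to vehicle treated cultures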; settings: S. cerevisiae cln2 rad14 strain, at 50.0 µM
This is part of a sample that, as a whole, favours compounds with a hit. Of some 79,000 tested, about 15% had one in any assay. Calls of active or inactive are those of the source. No stated cut-off is given here; in the data, active means growth inhibition above about 70%; inactive means the rest.
Write down the outcome that applies. Available outcomes: active, inactive

INPUT: Lab log entry: `CCC[CH2][Sn]([CH2]CCC)([O]C(=O)c1cc(F)cc(F)c1)[O]C(=O)c1cc(F)cc(F)c1` — outcome as called in the assay?
OUTPUT: inactive

INPUT: Lab log entry: `NC1=CC(=O)c2ccccc2C1=O` — outcome as called in the assay?
OUTPUT: inactive

* * *

assay: NCI Yeast Anticancer Drug Screen. Data for the bub3 strain (AID 167); details: S. cerevisiae bub3 mutant strain, at 50.0 µM, hits give high values
This is part of a sample that, as a whole, favours compounds with a hit. Of some 79,000 tested, about 15% had one in any assay. Active and inactive are the calls of the source. Cut-off read from the data, not from the text of the source: active = growth inhibition above about 70%; inactive = the rest.
measure_name: growth inhibition

Looking up `Cc1cc(Cl)c(O)c(-c2cc(-c3cccc([N+](=O)[O-])c3)c3c(N)[nH]c(=S)nc3n2)c1` , I found its growth inhibition recorded as -6.15% (inactive)

Looking up `N#Cc1c(-c2ccc(Cl)cc2)c(-c2ccc(Cl)cc2)nn(CCOC(=O)CCC(=O)O)c1=O` , I found its growth inhibition recorded as 84% (active)

Looking up `C/C=C(/CN/C(=C\[N+](=O)[O-])c1ccccc1)c1ccccc1` , I found its growth inhibition recorded as 92.7% (active)

Looking up `COC1(OC)OC2=C(OC1(OC)OC)c1ccccc1C2=O` , I found its growth inhibition recorded as -16.6% (inactive)

// next entry
Looking up `Cc1occc1C(=S)Nc1ccc(Cl)c(C(=O)OCC(C)C)c1` , I found its growth inhibition recorded as 57.1% (inactive)

* * *

experiment: NCI Yeast Anticancer Drug Screen. Data for the cln2 rad14 strain (AID 165);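 also: 0% = growth equal to vehicle treated cultures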; settings: S. cerevisiae cln2 rad14 strain, at 50.0 µM
Compounds without any hit were thinned out: in the full panel of roughly 79,000, 15% have a hit. Active and inactive are the calls of the source. Rule as the data show it: active = growth inhibition above about 70%; inactive = the rest.
Write down the outcome that applies. Available outcomes: active, inactive

INPUT: Lab log entry: `Cc1cc(C(C)(CC(C)C)c2ccc(O)c(C)c2)ccc1O` — outcome as called in the assay?
OUTPUT: active

INPUT: Lab log entry: `CC(C)(C)C1=NC(=S)SC2=NC(=O)C3(NN21)c1ccccc1-c1ccccc13` — outcome as called in the assay?
OUTPUT: inactive

INPUT: Lab log entry: `CC(C)c1ccc(C(=O)OC2CCCCC2)cc1` — outcome as called in the assay?
OUTPUT: inactive

INPUT: Lab log entry: CCCCCN(CCCCC)CC(O)c1cc2ccccc2c2ccccc12 (stereo not drawn) — outcome as called in the assay?
OUTPUT: active

INPUT: Lab log entry: `CC#CS(=O)(=O)c1ccccc1` — outcome as called in the assay?
OUTPUT: inactive

Further cases:
INPUT: Lab log entry: `C[C@]12CCC(=O)C=C1CC[C@@H]1[C@@H]2[C@@H](O)C[C@@]2(C)[C@H]1CC[C@]2(O)C(=O)COC(=O)C1CCCC1` — outcome as called in the assay?
OUTPUT: inactive

INPUT: Lab log entry: C=C1C[C@@]2(OC)OCC[C@H]3C(C)=CCC(C1=O)[C@]32C(=O)OC (stereo partly drawn) — outcome as called in the assay?
OUTPUT: active

INPUT: Lab log entry: CCOC(=O)C(NC(=O)C(CO)n1c(-c2ccccc2)c(-c2ccccc2)oc1=O)C(=O)OCC (stereo not drawn) — outcome as called in the assay?
OUTPUT: inactive

INPUT: Lab log entry: `S=C(NCCNC(=S)[S][Sn]([c]1ccccc1)([c]1ccccc1)[c]1ccccc1)[S][Sn]([c]1ccccc1)([c]1ccccc1)[c]1ccccc1` — outcome as called in the assay?
OUTPUT: active

INPUT: Lab log entry: `CN(C)CC(C)(C)/C(=N\Nc1ccccc1)c1ccccc1` — outcome as called in the assay?
OUTPUT: inactive

INPUT: Lab log entry: `CC(C)(C)NC1=NC(C(F)(F)F)(C(F)(F)F)NC(=O)N1` — outcome as called in the assay?
OUTPUT: inactive

INPUT: Lab log entry: `CN(C)N=Nc1ccc(Cl)c2ncccc12` — outcome as called in the assay?
OUTPUT: inactive

* * *

growth inhibition: recorded values
test: NCI Yeast Anticancer Drug Screen. Data for the mec2-1 strain (AID 157); details: S. cerevisiae mec2-1 strain, at 50.0 µM, hits give high values
The panel holds about 79,000 compounds, 15% with a hit somewhere; the sample as a whole holds those more often.
Hi! Could you send only the number? It should be in %, unit omitted.

Looking up `c1ccc(CSc2nnc3c4ccccc4c4ccccc4c3n2)cc1` , I found its growth inhibition recorded as -19.7

Looking up `CN(C)CCC(/C=C/c1ccccc1)=N\Nc1ccc(Cl)c(Cl)c1` , I found its growth inhibition recorded as 99.6

Looking up `CCC[CH2][Sn]([CH2]CCC)([S]/C(C#N)=N/N=C/c1ccc(N(C)C)cc1)[S]/C(C#N)=N/N=C/c1ccc(N(C)C)cc1` , I found its growth inhibition recorded as 92.5

Looking up `CC(C)(C)NC1=NC(C(F)(F)F)(C(F)(F)F)NC(=O)N1` , I found its growth inhibition recorded as 40.8

Looking up C#CC(NCCC(C)CC(C)(C)C)C(C)C (stereo unspecified) , I found its growth inhibition recorded as 36.2

Looking up `O=C(CCN(Cc1ccccc1)Cc1ccccc1)c1ccc2ccccc2c1` , I found its growth inhibition recorded as 55.6

Looking up `CCOC(=O)c1cc2c(nc1N)/C(=C/c1ccccc1)CCCC2` , I found its growth inhibition recorded as -34.6

Looking up `CCN(CC)CCOC(=O)Cc1cccc2c(=O)cc(-c3cccs3)oc12` , I found its growth inhibition recorded as -9.35

Looking up `COc1ccc(/C=C/c2c[n+]([O-])ccc2[N+](=O)[O-])cc1` , I found its growth inhibition recorded as 72.2

Looking up N#CC(C#N)C(C#N)c1ccc(Cl)c(Cl)c1 (stereo unspecified) , I found its growth inhibition recorded as 99.7

Further cases:
Looking up `O=C(c1ccco1)N(C(=S)N1CCN(c2ccccn2)CC1)c1ccccc1` , I found its growth inhibition recorded as 47.4

* * *

experiment: NCI Yeast Anticancer Drug Screen. Data for the cln2 rad14 strain (AID 165);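 also: 0% = growth equal to vehicle treated cultures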; conditions: S. cerevisiae cln2 rad14 strain, at 50.0 µM (retest, dose inferred, filed as 5.0), hits give high values
The panel holds about 79,000 compounds, 15% with a hit somewhere; the sample as a whole holds those more often.
growth inhibition: recorded values
Hi! Could you send only the number? It should be in %, unit omitted.

Looking up `CC(=O)Nc1nnc(C)s1` , I found its growth inhibition recorded as 6

Looking up `c1ccc2c(c1)Nc1cc3ccccc3cc1N2` , I found its growth inhibition recorded as 41

Looking up `O=Cc1cc(S(=O)(=O)c2ccc(O)c(C=O)c2)ccc1O` , I found its growth inhibition recorded as 25

Looking up `O=C(CCN1CCCC1)c1ccc(Oc2ccc(F)cc2)cc1` , I found its growth inhibition recorded as 68

Looking up `O=[N+]([O-])c1ccc2c(N=Nc3ccc4ccccc4c3O)c(O)cc(S(=O)(=O)O)c2c1` , I found its growth inhibition recorded as -68

// next entry
Looking up `CSc1nc(NN)cc(-c2ccccc2)n1` , I found its growth inhibition recorded as -2

This collection of values is drawn from PubChem BioAssay (NCI).
